B1: RHOBTB3 (parent)
chain: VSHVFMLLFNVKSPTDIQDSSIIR

Variants of: B1
experiment description: protein stability index of a GFP-peptide fusion (GPS, HEK-293T) (PSI 1-6); higher = more stable;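 note: lentivirally expressed fusions sorted by FACS into six bins by GFP to DsRed ratio, PSI derived from sequencing read proportions per bin multiplied by bin number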
condition: c terminus: a fixed tail appended
Rule: protein stability index of 3 or more gives true; anything lower gives false.

Exercise: For this variant, is measured protein stability index 3 or higher? F5G
Key: false

Exercise: Say whether V1Q shows protein stability index of 3 or more.
Key: false

Exercise: Given S2A , state whether its protein stability index is at least 3.
Key: false

Exercise: Does the reported protein stability index for Q18P fall at or above the 3 mark?
Key: true

Exercise: Quick check, protein stability index >= 3? L7S
Key: false
